# targetDesc: UniProt:O43194
# Sequence (O43194 whole entry): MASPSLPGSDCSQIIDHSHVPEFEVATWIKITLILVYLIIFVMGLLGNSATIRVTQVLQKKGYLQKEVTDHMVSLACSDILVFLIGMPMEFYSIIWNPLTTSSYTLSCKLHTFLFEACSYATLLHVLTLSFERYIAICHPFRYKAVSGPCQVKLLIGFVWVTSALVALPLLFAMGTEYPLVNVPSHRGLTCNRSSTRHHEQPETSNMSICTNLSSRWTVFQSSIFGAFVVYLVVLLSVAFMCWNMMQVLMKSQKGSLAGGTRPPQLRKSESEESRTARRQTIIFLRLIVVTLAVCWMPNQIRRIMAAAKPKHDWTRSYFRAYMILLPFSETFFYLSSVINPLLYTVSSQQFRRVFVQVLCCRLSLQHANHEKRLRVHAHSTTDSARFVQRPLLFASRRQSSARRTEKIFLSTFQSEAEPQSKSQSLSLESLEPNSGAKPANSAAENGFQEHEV
# assaySummary: luciferase assay system (SRE luciferase reporter gene, CV-1 cells expressing GPR39)
# Assay type: cell-based
# Set-up: expressed in transfected cells; host or cells: CV-1 fibroblast cell line (Korea Cell Line Bank), adenoviral transduction at 50 MOI
Square brackets hold non-standard residues; d marks the D form. Peptide text beside a SMILES is read from it. * marks the point of attachment. His(Trt) = N[C@@H](Cc1cn(C(c2ccccc2)(c2ccccc2)c2ccccc2)cn1)C(=O)O; His(τ-CHPh2) = N[C@@H](Cc1cn(C(c2ccccc2)c2ccccc2)cn1)C(=O)O; dPhe(4-Me) = Cc1ccc(C[C@@H](N)C(=O)O)cc1; Myristoyl = CCCCCCCCCCCCCC(=O)*; Octanoyl = CCCCCCCC(=O)*
measuredEndpoint: ECmax (−fold induction over basal)
Numbers only, in fold induction over basal.

Known ECmax (−fold induction over basal) results, listed for orientation:
molecule="CCCCCCCC(=O)NCCCC[C@H](NC(=O)[C@@H](N)Cc1cn(CCC(c2ccccc2)c2ccccc2)cn1)C(=O)N[C@@H](Cc1ccccc1)C(=O)N[C@@H](Cc1ccc(O)cc1)C(=O)O [HKFY-17]" targetdesc=UniProt:O43194 experimentalresult=20
molecule="CCCCCCCCCCCCCC(=O)NCCCC[C@H](NC(=O)[C@@H](N)Cc1cn(C(c2ccccc2)(c2ccccc2)c2ccccc2)cn1)C(=O)N[C@@H](Cc1ccccc1)C(=O)N[C@@H](Cc1ccc(O)cc1)C(=O)O [HKFY-26] (H-[His(Trt)]K(Myristoyl)FY-OH)" targetdesc=UniProt:O43194 experimentalresult=19.82
molecule="CCCCCCCC(=O)NCCCC[C@H](NC(=O)[C@@H](N)Cc1cn(S(=O)(=O)c2ccc(C)cc2)cn1)C(=O)N[C@H](Cc1ccc(C)cc1)C(=O)N[C@@H](Cc1ccc(O)cc1)C(=O)O [HKFY-75]" targetdesc=UniProt:O43194 experimentalresult=15.9

Kindly review the next molecule as well.
Note to self: ECmax (−fold induction over basal) recorded for CCCCCCCC(=O)NCCCC[C@H](NC(=O)[C@@H](N)Cc1cn(C(c2ccccc2)c2ccccc2)cn1)C(=O)N[C@H](Cc1ccc(C)cc1)C(=O)N[C@@H](Cc1ccc(O)cc1)C(N)=O [HKFY-66] (H-[His(τ-CHPh2)]K(Octanoyl)[dPhe(4-Me)]Y-NH2) was 20.2

The measurements presented in this section are drawn from patent US20250340591A1.
